These data points were gathered from patent US20200338203A1.

target: dog EphA2 (Dog); assay: FP direct binding, selectivity
Numbered stars: 1 amine (or outer) side, 2 acyl side, 3 side chain; on linkers, the order of the positions; unused ones are H or OH. Bridge positions count the residues as written; N and C are the ends. Square brackets hold non-standard residues; d marks the D form. Ends that are not written are not given here. 1Nal = N[C@@H](Cc1cccc2ccccc12)C(=O)O; TBMB = c1c(C[*:1])cc(C[*:3])cc1C[*:2]; Gly(cPent) = N[C@H](C(=O)O)C1CCCC1; hArg = N=C(N)NCCCC[C@H](N)C(=O)O; Tle = CC(C)(C)[C@H](N)C(=O)O; AF488 = AlexaFluor488 label; Aib = CC(C)(N)C(=O)O; βAla = NCCC(=O)O; Sar = CNCC(=O)O
Assign pKd to each entry below.
The quantity pKd is defined as the negative base-10 logarithm of the molar concentration.

q: Form field: reported pKd of {AF488-βAla}-[Sar][Sar][Sar][Sar][Sar][Sar][Sar][Sar][Sar][Sar]H[dD][Gly(cPent)]PCP[1Nal]G[Aib]F[1Nal]CP[Tle]N[hArg]P[dD]C (linker 15-22-29 via TBMB) [Compound 147]
a: 8.45

q: Request: {AF488-βAla}-[Sar][Sar][Sar][Sar][Sar][Sar][Sar][Sar][Sar][Sar]H[dD]VPCP[1Nal]G[Aib]F[1Nal]CP[Tle]NR[Aib][dD]C (linker 15-22-29 via TBMB) [Compound 145]
a: 8.30
